Listing of recorded half-life by entry.
Experiment: Half life of the compound in human CEM/0 cell extracts by RP18-HPLC analysis
Type: ADME, CCRF-CEM

>  <molecule>
CCCCCCCCCCCCCCCCCCP(=O)(OCCCC)OP(=O)(O)OP(=O)(O)CO[C@H](C)Cn1cnc2c(N)ncnc21 (some centres undefined)

>  <half-life>
> 8 h

$$$$
>  <molecule>
CCCCCCCCCCCCCCCCCCP(=O)(OCCCCCCCC)OP(=O)(O)OP(=O)(O)CO[C@H](C)Cn1cnc2c(N)ncnc21 (some centres undefined)

>  <half-life>
> 8 h

$$$$
>  <molecule>
CCCCCCCCCCCCCCCCCCOP(=O)(OCCCC)OP(=O)(O)OP(=O)(O)CO[C@H](C)Cn1cnc2c(N)ncnc21 (some centres undefined)

>  <half-life>
> 20 h

$$$$
>  <molecule>
CCCCCCCCCCCCCCCCCCOP(=O)(O)OP(=O)(O)OP(=O)(O)CO[C@H](C)Cn1cnc2c(N)ncnc21

>  <half-life>
> 8 h

$$$$
